Target: Amine oxidase [flavin-containing] A (Bos taurus) (UniProt P21398)
pIC50: −log10 of the molar value.
Endpoint: pIC50

[[record]]
compound = "CC(=O)N1N=C(c2ccc(O)cc2)CC1c1ccccc1Cl (centres undefined)"
measured_value = 8.07

[[record]]
compound = "CC(=O)N1N=C(c2ccc(O)cc2)CC1c1cccc(C)c1 (centres undefined)"
measured_value = 8.10

[[record]]
compound = "COc1ccccc1C1CC(c2ccc(O)cc2O)=NN1C(C)=O (stereo in doubt; 11)"
measured_value = 8.10

[[record]]
compound = "COc1ccccc1C1CC(c2ccc(O)cc2)=NN1C(C)=O (stereo in doubt; 6)"
measured_value = 8.06

